B1: Neutrophil cytosol factor 2, residues 456 to 514; numbered along this chain, P19878 (parent)
chain: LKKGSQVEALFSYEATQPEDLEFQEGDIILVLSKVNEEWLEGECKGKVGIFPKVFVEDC

Variants of: B1
assayText: abundance fitness (aPCA) (normalised: wild type 0, dead -1); higher = more abundant; growth selection in yeast, the domain comes from the species named
settings: Homo sapiens
quantity: abundance fitness
Number, no unit, nothing else.

These solved cases illustrate the format of a correct answer.
E25K 0.711
F51Y -0.359
K3E -0.067

Query string: Consider the variant shown here: `F55K` What is its recorded abundance fitness?
Result string: -0.584

Query string: Also `K45N` ?
Result string: 0.203

Query string: Also `Y13F` ?
Result string: -0.391

Query string: Also `E57R` ?
Result string: 0.865

Query string: Also `D20M` ?
Result string: 0.06

Query string: Also `F55H` ?
Result string: -0.229

Query string: Also `S5P` ?
Result string: -0.804

Query string: Also `I29S` ?
Result string: -0.374
